Measured dH by item
# Tested system: T1, DapF (diaminopimelate epimerase), wild type, N-terminal 6×His tag (Escherichia coli, UniProt P0A6K1 1-274)
# T1 sequence (looked up): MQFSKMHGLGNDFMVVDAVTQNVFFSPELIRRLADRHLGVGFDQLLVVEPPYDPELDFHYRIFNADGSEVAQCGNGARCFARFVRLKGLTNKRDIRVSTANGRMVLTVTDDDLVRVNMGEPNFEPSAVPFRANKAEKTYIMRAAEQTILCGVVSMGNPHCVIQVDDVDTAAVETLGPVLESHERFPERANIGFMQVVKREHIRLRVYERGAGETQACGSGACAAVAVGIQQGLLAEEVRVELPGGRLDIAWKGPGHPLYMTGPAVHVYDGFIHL
# Assay: ITC
Write it as a number; the unit kcal⋅mol^-1 goes unstated.

[in] I would be grateful if you could share the reported dH for RppH (S128A), GST tag removed (enzyme, Escherichia coli, UniProt P0A776 1-176, looked up) MIDDDGYRPNVGIVICNRQGQVMWARRFGQHSWQFPQGGINPGESAEQAMYRELFEEVGLSRKDVRILASTRNWLRYKLPKRLVRWDTKPVCIGQKQKWFLLQLVSGDAEINMQTSSTPEFDGWRWVAYWYPVRQVVSFKRDVYRRVMKEFASVVMSLQENTPKPQNASAYRRKRG .
[out] -12.5

[in] I would be grateful if you could share the reported dH for RppH (RNA pyrophosphohydrolase), wild type, GST tag removed (enzyme, Escherichia coli, UniProt P0A776 1-176, looked up) MIDDDGYRPNVGIVICNRQGQVMWARRFGQHSWQFPQGGINPGESAEQAMYRELFEEVGLSRKDVRILASTRNWLRYKLPKRLVRWDTKPVCIGQKQKWFLLQLVSGDAEINMQTSSTPEFDGWRWVSYWYPVRQVVSFKRDVYRRVMKEFASVVMSLQENTPKPQNASAYRRKRG .
[out] -13

[in] I would be grateful if you could share the reported dH for RppH (R145A), GST tag removed (enzyme, Escherichia coli, UniProt P0A776 1-176, looked up) MIDDDGYRPNVGIVICNRQGQVMWARRFGQHSWQFPQGGINPGESAEQAMYRELFEEVGLSRKDVRILASTRNWLRYKLPKRLVRWDTKPVCIGQKQKWFLLQLVSGDAEINMQTSSTPEFDGWRWVSYWYPVRQVVSFKRDVYARVMKEFASVVMSLQENTPKPQNASAYRRKRG .
[out] -14.6

We next turn to a different binder, shown below.
[in] I would be grateful if you could share the reported dH for RppH (D142A), GST tag removed (enzyme, Escherichia coli, UniProt P0A776 1-176, looked up) MIDDDGYRPNVGIVICNRQGQVMWARRFGQHSWQFPQGGINPGESAEQAMYRELFEEVGLSRKDVRILASTRNWLRYKLPKRLVRWDTKPVCIGQKQKWFLLQLVSGDAEINMQTSSTPEFDGWRWVSYWYPVRQVVSFKRAVYRRVMKEFASVVMSLQENTPKPQNASAYRRKRG .
[out] -11
